- assay-target: T1, human TFPI K1 (human, UniProt P10646 29-107, limits assumed)
- T1 construct: domain: K1; also called Kunitz domain 1
- T1 sequence (looked up): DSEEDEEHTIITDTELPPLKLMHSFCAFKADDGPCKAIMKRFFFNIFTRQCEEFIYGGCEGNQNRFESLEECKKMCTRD
- assay-method-text: Western blots and ELISA
recorded-metric: binding result

>>> reported_measurement("TP-3G1 chimeric IgG (antibody, V domains shown, Chimeric IgG: human variable regions on mouse constant regions, murine IgG1 isotype, made in HKB11 cells) VH: QVQLQQSGPGLVKPSQTLSLTCAISGDSVSSNSGGWGWIRQSPGRGLEWLGLIYYRSKWYNAYAVSVKSRITINPDTSKNQFSLQLNSVTPEDTAVYYCARYLGSNFYVYSDVWGQGTLVTVSS VL: DIQMTQSPSSLSASVGDRVTITCRASQGISSYLHWYQQKPGKAPKLLIYGASTLQSGVPSRFSGSGSGTDFTLTISSLQPEDFATYYCQQQNGYPFTFGQGTKVEIKR")
"no binding"
>>> reported_measurement("2G6-IgG (antibody, V domains shown, Chimeric IgG: human variable regions on mouse constant regions, murine IgG1 isotype, made in HKB11 cells; also called IgG-2G6; TP-2G6 chimeric IgG) VH: QVQLQQSGPGLVKPSQTLSLTCAISGDSVSSSSAAWSWIRQSPGRGLEWLGIIYYRSKWYNDYAVSVKSRITINPDTSKNQFSLQLNSVTPEDTAVYYCARHSMVGFDVWGQGTLVTVSS VL: DIVLTQSPATLSLSPGERATLSCRASQYVTSSYLAWYQQKPGQAPRLLIYGSSRATGVPARFSGSGSGTDFTLTISSLEPEDFATYYCQQYSSSPITFGQGTKVEIKR")
"no binding"
>>> reported_measurement("TP-4B7 chimeric IgG (antibody, V domains shown, Chimeric IgG: human variable regions on mouse constant regions, murine IgG1 isotype, made in HKB11 cells) VH: QVQLQQSGPGLVKPSQTLSLTCAISGDSVSSNSAAWSWIRQSPGRGLEWLGIIYKRSKWYNDYAVSVKSRITINPDTSKNQFSLQLNSVTPEDTAVYYCARWHSDKHWGFDYWGQGTLVTVSS VL: DIVMTQSPLSLPVTPGEPASISCRSSQSLVFSDGNTYLNWYLQKPGQSPQLLIYKGSNRASGVPDRFSGSGSGTDFTLKISRVEAEDVGVYYCQQYDSYPLTFGQGTKVEIKR")
"no binding"

Taken from patent US20120269817A1.
